TEST PARAMETERS: in isopropanol, 298.2 K
RESULT TYPE: solubility (mole fraction)
# respond with the number and nothing more

// returns reported solubility (mole fraction) for input Cn1c([N+](=O)[O-])cnc1N1CCN(S(C)(=O)=O)C1=O
0.000368

====

TEST PARAMETERS: in DMSO, 298.2 K
RESULT TYPE: solubility (mole fraction)
# respond with the number and nothing more

// returns reported solubility (mole fraction) for input Cn1c([N+](=O)[O-])cnc1N1CCN(S(C)(=O)=O)C1=O
0.0702

====

TEST PARAMETERS: in NMP, 298.2 K
RESULT TYPE: solubility (mole fraction)
# respond with the number and nothing more

// returns reported solubility (mole fraction) for input Cn1c([N+](=O)[O-])cnc1N1CCN(S(C)(=O)=O)C1=O
0.116

====

TEST PARAMETERS: in ethylene glycol, 293.2 K
RESULT TYPE: solubility (mole fraction)
# respond with the number and nothing more

// returns reported solubility (mole fraction) for input Cn1c([N+](=O)[O-])cnc1N1CCN(S(C)(=O)=O)C1=O
0.000879

====

TEST PARAMETERS: in propylene glycol, 298.2 K
RESULT TYPE: solubility (mole fraction)
# respond with the number and nothing more

// returns reported solubility (mole fraction) for input Cn1c([N+](=O)[O-])cnc1N1CCN(S(C)(=O)=O)C1=O
0.00232

====

TEST PARAMETERS: in PEG-200, 293.2 K
RESULT TYPE: solubility (mole fraction)
# respond with the number and nothing more

// returns reported solubility (mole fraction) for input Cn1c([N+](=O)[O-])cnc1N1CCN(S(C)(=O)=O)C1=O
0.00829

====

TEST PARAMETERS: in water, 313.2 K
RESULT TYPE: solubility (mole fraction)
# respond with the number and nothing more

// returns reported solubility (mole fraction) for input Cn1c([N+](=O)[O-])cnc1N1CCN(S(C)(=O)=O)C1=O
5.06e-06

Where these numbers come from: BigSolDB 2.1
